Each recorded value in this set is attributed to patent US6693126B2.

# Tested on: Liver Injuries caused by D-galactosamine in Rats
# Protocol Description: Inhibitory effect against liver injuries caused by D-galactosamine in rats
# Format: in vivo, Rats (SD, male)
# Experimental Conditions: D-galactosamine i.p., dose 50 mg/kg p.o. once, serum 24 h
Readout Kind: Inhibitory Effect against Liver Injuries (%) ALT
State the answer as a number, implicitly in %.

Data request, read-out Inhibitory Effect against Liver Injuries (%) ALT, for `CC(=O)SCC(=O)c1ccc2c(c1)OCO2` 52

Data request, read-out Inhibitory Effect against Liver Injuries (%) ALT, for `c1csc(-c2ccc3c(c2)OCO3)n1` 56

Data request, read-out Inhibitory Effect against Liver Injuries (%) ALT, for `COc1cc(/C=N/OCc2ccccn2)cc2c1OCO2` 67

Data request, read-out Inhibitory Effect against Liver Injuries (%) ALT, for `O/N=C/c1ccc2c(c1)OCO2` 12

Data request, read-out Inhibitory Effect against Liver Injuries (%) ALT, for COC(=O)c1cc(OC)c2c(c1-c1c(C(=O)OC)cc(OC)c3c1OCO3)OCO2 [DDB, reference compound] 28

----------
# Test system: Fulminant Liver Injuries caused by D-galactosamine/lipopolysaccharide in Mice
# Protocol Description: Inhibitory effect against fulminant liver injuries caused by D-galactosamine/lipopolysaccharide in mice (survival)
# Type: in vivo, Mice (ICR, male)
# Experimental Conditions: D-galactosamine 800 mg/kg + lipopolysaccharide 10 μg/kg i.p., dose 50 mg/kg oral once, observed 24 hours
For each record, write down the corresponding Survival Rate (%).
The reply should read as a number followed by its unit.

Data request, read-out Survival Rate (%), for COC(=O)c1cc(OC)c2c(c1-c1c(C(=O)OC)cc(OC)c3c1OCO3)OCO2 [DDB, reference compound] 80%

Data request, read-out Survival Rate (%), for C(=N\OCc1ccccn1)/c1ccc2c(c1)OCO2 [Compound 9] 90%

Data request, read-out Survival Rate (%), for COc1cc(/C=N/OCc2ccccn2)cc2c1OCO2 [Compound 13] 90%

Data request, read-out Survival Rate (%), for O/N=C/c1ccc2c(c1)OCO2 [Compound 1] 90%

Data request, read-out Survival Rate (%), for CC(=O)N(C)CC(=O)c1ccc2c(c1)OCO2 [SY-640, reference compound] 90%

----------
For each record, write down the corresponding Inhibitory Effect against Liver Injuries (%) ALT.
# Tested on: Liver Injuries caused by Carbon Tetrachloride in Mice
# Protocol Description: Inhibitory effect against liver injuries caused by carbon tetrachloride in mice
# Format: in vivo, mice (ICR, male)
# Experimental Conditions: CCl4 i.p., dose 50 mg/kg p.o. once, serum 24 h
State the answer as a number, implicitly in %.

Data request, read-out Inhibitory Effect against Liver Injuries (%) ALT, for COc1cc(/C=N/OCc2ccccn2)cc2c1OCO2 [Compound 13] 100

Data request, read-out Inhibitory Effect against Liver Injuries (%) ALT, for O/N=C/c1ccc2c(c1)OCO2 [Compound 1] 100

Data request, read-out Inhibitory Effect against Liver Injuries (%) ALT, for CC(=O)SCC(=O)c1ccc2c(c1)OCO2 [Compound 28] 100

Data request, read-out Inhibitory Effect against Liver Injuries (%) ALT, for COC(=O)c1cc(OC)c2c(c1-c1c(C(=O)OC)cc(OC)c3c1OCO3)OCO2 [DDB, reference compound] 22

Data request, read-out Inhibitory Effect against Liver Injuries (%) ALT, for c1csc(-c2ccc3c(c2)OCO3)n1 [Compound 21] 100

Data request, read-out Inhibitory Effect against Liver Injuries (%) ALT, for C(=N\OCc1ccccn1)/c1ccc2c(c1)OCO2 [Compound 9] 98
